- test_description: Apparent permeability across apical to basolateral side in human Caco2/TC7 cells after 2 hrs
- Assay type: ADME, cell-based
- measurement_conditions: Caco-2

| compound | Papp A→B at 2 h, ×10⁻⁶ cm/s |
| --- | --- |
| COCCc1ccc(OCC(O)CNC(C)C)cc1 (stereo unspecified) | 29.9 |

---

- System: Plasmodium falciparum
- test_description: Antimalarial activity against Plasmodium falciparum C235 containing mdr1 transporter gene assessed as growth inhibition after 72 hrs by SYBR Green 1-based fluorescence assay
- Type: functional, organism-based
- measurement_conditions: C235, MDR1, 72 h
readout_label: IC50 (nM)

| molecule | endpoint_unit | observed_value |
| --- | --- | --- |
| O[C@@H](c1cc(C(F)(F)F)nc2c(C(F)(F)F)cccc12)[C@H]1CCCCN1 [(S,R)-MEFLOQUINE] | nM | 50 |
| Cl.O=C1/C(=C/c2ccc(Cl)cc2)CN(C(=O)c2ccc(OCCN3CCOCC3)cc2)C/C1=C\c1ccc(Cl)cc1 | nM | 1970 |

---

- System: Plasmodium falciparum
- test_description: Antimalarial activity against Plasmodium falciparum D6 assessed as growth inhibition after 72 hrs by SYBR Green 1-based fluorescence assay
- Assay type: functional, organism-based
- measurement_conditions: D6, 72 h
readout_label: IC50 (nM)

| substance_smiles | readout_label | endpoint_unit | observed_value |
| --- | --- | --- | --- |
| Cl.O=C1/C(=C/c2ccc(Cl)cc2)CN(C(=O)c2ccc(OCCN3CCOCC3)cc2)C/C1=C\c1ccc(Cl)cc1 | IC50 | nM | 600 |

---

- test_description: Apparent permeability across apical to basolateral side in human Caco2/TC7 cells at 50 uM after 2 hrs
- Format: ADME, cell-based
- measurement_conditions: Caco-2

| substance_smiles | endpoint_unit | Papp A→B at 2 h, 50 µM |
| --- | --- | --- |
| Cl.O=C1/C(=C/c2ccc(Cl)cc2)CN(C(=O)c2ccc(OCCN3CCOCC3)cc2)C/C1=C\c1ccc(Cl)cc1 | ×10⁻⁶ cm/s | 1.2 |

Data origin: ChEMBL document CHEMBL2321756
